Recorded pKd for the following binders
Molecular target: T1, Card1 (Tresu_2185, Cad1) (Treponema succinifaciens, UniProt F2NWD3 1-372)
T1 sequence: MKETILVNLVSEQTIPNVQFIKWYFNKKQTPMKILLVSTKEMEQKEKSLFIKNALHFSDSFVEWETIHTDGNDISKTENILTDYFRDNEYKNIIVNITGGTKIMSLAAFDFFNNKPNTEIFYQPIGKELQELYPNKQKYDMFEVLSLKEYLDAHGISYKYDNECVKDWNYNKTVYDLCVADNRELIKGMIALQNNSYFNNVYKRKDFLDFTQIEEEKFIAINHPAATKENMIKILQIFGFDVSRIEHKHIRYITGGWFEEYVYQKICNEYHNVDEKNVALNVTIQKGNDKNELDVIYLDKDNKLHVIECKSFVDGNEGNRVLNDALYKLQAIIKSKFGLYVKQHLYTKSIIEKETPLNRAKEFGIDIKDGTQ
Assay: ITC
Remember the convention: pKd equals -log10 of concentration in molar.

INSERT INTO results (binder, readout_label, data_value) VALUES
  ('AAAAAA (ssRNA, cyclic 3''-5'' oligoadenylate; no free ends) [cA6 (cyclic hexaadenylate)]', 'pKd', 7.11);

Now for another entry.
Specify reported pKd for the binder shown: AAAA (ssRNA, cyclic 3'-5' oligoadenylate; no free ends) [cA4 (cyclic tetraadenylate)]
7.82
